System: Mycobacterium tuberculosis
Assay: Antibacterial activity against Mycobacterium tuberculosis TN1618 (P)
Format: functional
Quick reference: MIC of the listed items.
Quantity kind: MIC (µg/mL)

* C[C@H](N)C(=O)N(C)[C@@H](C)[C@H](NC(=O)[C@H](Cc1ccc(-c2ccccc2)cc1)NC(=O)N[C@@H](Cc1c[nH]c2ccccc12)C(=O)O)C(=O)NC[C@H]1C[C@@H](O)[C@H](n2ccc(=O)[nH]c2=O)O1 | 10
* CC(C)C[C@H](N)C(=O)N(C)[C@@H](C)[C@H](NC(=O)[C@H](Cc1ccccc1)NC(=O)N[C@@H](Cc1c[nH]c2ccccc12)C(=O)O)C(=O)NC[C@H]1C[C@@H](O)[C@H](n2ccc(=O)[nH]c2=O)O1 | 10
* C[C@H](N)C(=O)N(C)[C@@H](C)[C@H](NC(=O)[C@H](Cc1ccc(F)cc1)NC(=O)N[C@@H](Cc1c[nH]c2ccccc12)C(=O)O)C(=O)NC[C@H]1C[C@@H](O)[C@H](n2ccc(=O)[nH]c2=O)O1 | 8
* C[C@H](N)C(=O)N(C)[C@@H](C)[C@H](NC(=O)[C@H](Cc1ccccc1)NC(=O)N[C@@H](Cc1ccc2ccccc2c1)C(=O)O)C(=O)NC[C@H]1C[C@@H](O)[C@H](n2ccc(=O)[nH]c2=O)O1 | 10
* C[C@H](N)C(=O)N(C)[C@@H](C)[C@H](NC(=O)[C@H](Cc1ccccc1)NC(=O)N[C@@H](Cc1c[nH]c2ccccc12)C(=O)O)C(=O)NC[C@H]1CC(O)[C@H](n2ccc(=O)[nH]c2=O)O1 (stereo not given in full) | 8
